# system: CB2R (Homo sapiens)
# Sequence (P34972 whole entry): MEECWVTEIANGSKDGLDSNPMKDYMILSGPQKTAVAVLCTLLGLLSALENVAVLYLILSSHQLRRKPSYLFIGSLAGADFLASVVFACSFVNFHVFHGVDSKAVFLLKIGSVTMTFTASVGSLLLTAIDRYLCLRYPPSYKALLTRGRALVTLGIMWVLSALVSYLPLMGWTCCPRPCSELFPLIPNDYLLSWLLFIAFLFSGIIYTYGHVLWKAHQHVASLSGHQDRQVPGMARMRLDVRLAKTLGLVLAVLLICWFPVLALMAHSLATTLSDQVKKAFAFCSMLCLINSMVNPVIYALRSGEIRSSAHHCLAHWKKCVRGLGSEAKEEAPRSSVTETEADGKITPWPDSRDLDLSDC
# procedureText: CB2R agonism assay, HEK293T-CB2 cells with CRE-Luc reporter, forskolin-stimulated
quantityKind: EC50 (mM)
Provide the reading as a plain figure in mM.

EC50 in this record for COc1cc(/C=C/C(=O)CC(=O)/C=C/c2ccc(O)c(OC)c2)ccc1O : 5.97
